# subject of test: T1, human CD3ε/δ-His (human, UniProt P07766 23-126; P04234 22-105)
# T1 construct: Bought recombinant heterodimer with His tag; also called human CD3ε/δ protein
# experiment description: ELISA, coated antigen, hybridoma screening
Labelling field: enter t if recorded OD450 is less than 2 OD450. Enter f if it equals or exceeds that cut-off.

Solved cases below.
[[record]]
binder = "5-7.13 murine hybridoma antibody (supernatant) (antibody, V domains shown, Tested as hybridoma supernatant) VH: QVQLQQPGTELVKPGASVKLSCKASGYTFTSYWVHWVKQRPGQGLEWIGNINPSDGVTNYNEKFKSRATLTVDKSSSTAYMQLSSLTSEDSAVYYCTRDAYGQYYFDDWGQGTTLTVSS VL: DIVMSQSPSSLVVSAGEKVTMSCKSSQSLLNSRTRKNYLAWYQQKPGQSPKLLIYWASVRDSGVPDRFTGSGSGTDFTLTISNVQAEDLAVYYCIQSYYLRTFGGGTILEIK"
assigned_class = "f"

[[record]]
binder = "1-22.6 murine hybridoma antibody (supernatant) (antibody, V domains shown, Tested as hybridoma supernatant) VH: QIPLVQSGPELKKPGETVKISCKTSGYTFTSYGMSWVKQAPGKGLKWMGWINTYSGVPTYADDFKGRFVFSLDTSASTAFLQINNLKNEDTATYFCARLKNNPFCWGQGSTLTVFS VL: DVLMTQSPLSLPVRLGDQASISCRSSQLILHSNGNTYLEWYLQKPGQSPKLLIYKVSNRFSGVPDRFSGSGSGTDFTLKISRVEAEDLGVYYCFQGSHFPWTFGGGTKLEIK"
assigned_class = "f"

[[record]]
binder = "7-35.6 murine hybridoma antibody (supernatant) (antibody, V domains shown, Tested as hybridoma supernatant) VH: EVQLVESGGGLVQPKGSLKLSCAASGFTFNTYAMNWVRQAPGKGLEWVGRIRSKINNYATYYGDSVKDRFTISRDDSQSMFYLQMNNLKTEDTAMYYCVIHENYGSISWFAYWGQGTLVTVSA VL: QAVVTQESTLTTSPGETVTLTCRSSTGAVTTSNYANWVQEKPDHLFTGLIGGTNNRAPGVPARFSGSLIGDKAALTITGAQTEDEAIYFCALWYSNHWVFGGGTKLTVL"
assigned_class = "t"


Request: Strictly below 2 OD450 in OD450? 6-44.5 murine hybridoma antibody (supernatant) (antibody, V domains shown, Tested as hybridoma supernatant) VH: EVQLQQSGPELVKPGASVKMSCKASGHTFTSHIMHWVKQKPGQGLEWIGYINPNNDRTEYSEKFKGKATLTSDKSSSTAYMELSSLTSEDSAVYYCAGEAYYSNSLYAMDYWGQGTSVTVSS VL: DIVMSQSPSSLAVSAGEKVTMSCKSSQSLFNSRTRKNYLAWYQQKPGQSPELLIYWASTRESGVPVRFTGSGSGTDFTLTISSVQAEDLAVYYCKQSYYLRTFGGGTKLEVK
Result: f

Request: # strict comparison: is reported OD450 < 2 OD450? input = 5-40.21 murine hybridoma antibody (supernatant) (antibody, V domains shown, Tested as hybridoma supernatant) VH: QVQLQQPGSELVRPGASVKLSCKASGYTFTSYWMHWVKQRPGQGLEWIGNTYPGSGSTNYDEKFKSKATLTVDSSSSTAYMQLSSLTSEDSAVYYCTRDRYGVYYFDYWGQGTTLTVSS VL: DIVMSQSPSSLAVSAGEKVTMSCKSSQSLLNSRTRKNYLAWYQQKPGQSPKLLIYWASTRESGVPDRFSGSGSGTDFTLTISSVQAEDLAVYYCTQSYNLRTFGGGTKLEIK
Result: f
